Biological target: HLA-A*3001 (Homo sapiens, UniProt P04439, D140H/D185E/E176W/F33S/G80R/H175R/K168Q/R138E/R41S)
Assay: Competitive peptide-binding assay, purified HLA-A*3001
Peptide text beside a SMILES is read from it.
recorded_metric: IC50

Below: 2 molecules and their reported IC50.
# molecule, IC50
rows = [
    ("CC(C)C[C@H](NC(=O)[C@H](C)NC(=O)[C@H](CC(C)C)NC(=O)[C@@H](N)[C@@H](C)O)C(=O)N[C@@H](CCC(=O)O)C(=O)N[C@H](C(=O)N[C@@H](C)C(=O)N[C@@H](CCC(N)=O)C(=O)N[C@@H](CCC(N)=O)C(=O)N[C@@H](CCCCN)C(=O)O)C(C)C [Mouse Ins2 C23-32] (H-TLALEVAQQK-OH)", "> 50 µM"),
    ("CC(C)C[C@H](NC(=O)[C@H](C)NC(=O)[C@H](CC(C)C)NC(=O)[C@@H](N)[C@@H](C)O)C(=O)N[C@@H](CCC(=O)O)C(=O)N[C@H](C(=O)N[C@@H](C)C(=O)N[C@@H](CCCNC(=N)N)C(=O)N[C@@H](CCC(N)=O)C(=O)N[C@@H](CCCCN)C(=O)O)C(C)C [Mouse Ins1 C21-30] (H-TLALEVARQK-OH)", "23.3 µM"),
]

Consider the record given below.
// field: IC50; key: CC(C)C[C@H](NC(=O)[C@H](C)NC(=O)[C@H](CC(C)C)NC(=O)[C@@H]1CCCN1)C(=O)N[C@@H](CCC(=O)O)C(=O)NCC(=O)N[C@@H](CO)C(=O)N[C@@H](CC(C)C)C(=O)N[C@@H](CCC(N)=O)C(=O)N[C@@H](CCCCN)C(=O)O [Human Ins C23-32] (H-PLALEGSLQK-OH) ; value = > 50 µM

Just for reference, paper PMC3358524 is where these values come from.
